experiment: Cytotoxicity against human HEK-Blue hNOD2 cells assessed as metabolic activity at 10 uM incubated for 18 hes by MTT assay; format: toxicity, cell-based; details: hek-blue hnod2, 10 µM
READOUT: Activity

{"STRUCTURE_SMILES": "CCCCC/C=C\\C/C=C\\C/C=C\\CCCCC(=O)Oc1ccc(/C=C/C(=O)NCC(=O)N[C@H](C(=O)N[C@H](CCC(=O)OCC)C(=O)OCC)C(C)C)cc1OC", "EXPERIMENTAL_VALUE": "Non-toxic"}
{"STRUCTURE_SMILES": "CCCCCCCCCCCCCCCC(=O)Oc1ccc(/C=C/C(=O)NCC(=O)N[C@H](C(=O)N[C@H](CCC(=O)OCC)C(=O)OCC)C(C)C)cc1OC", "EXPERIMENTAL_VALUE": "Non-toxic"}
{"STRUCTURE_SMILES": "CCCCCCCC(=O)Oc1ccc(/C=C/C(=O)NCC(=O)N[C@H](C(=O)N[C@H](CCC(=O)OCC)C(=O)OCC)C(C)C)cc1OC", "EXPERIMENTAL_VALUE": "Non-toxic"}

# credit: ChEMBL document CHEMBL6120969
